Biological target: Kv1.5 (Homo sapiens, UniProt P22460)
Sequence (P22460 whole entry): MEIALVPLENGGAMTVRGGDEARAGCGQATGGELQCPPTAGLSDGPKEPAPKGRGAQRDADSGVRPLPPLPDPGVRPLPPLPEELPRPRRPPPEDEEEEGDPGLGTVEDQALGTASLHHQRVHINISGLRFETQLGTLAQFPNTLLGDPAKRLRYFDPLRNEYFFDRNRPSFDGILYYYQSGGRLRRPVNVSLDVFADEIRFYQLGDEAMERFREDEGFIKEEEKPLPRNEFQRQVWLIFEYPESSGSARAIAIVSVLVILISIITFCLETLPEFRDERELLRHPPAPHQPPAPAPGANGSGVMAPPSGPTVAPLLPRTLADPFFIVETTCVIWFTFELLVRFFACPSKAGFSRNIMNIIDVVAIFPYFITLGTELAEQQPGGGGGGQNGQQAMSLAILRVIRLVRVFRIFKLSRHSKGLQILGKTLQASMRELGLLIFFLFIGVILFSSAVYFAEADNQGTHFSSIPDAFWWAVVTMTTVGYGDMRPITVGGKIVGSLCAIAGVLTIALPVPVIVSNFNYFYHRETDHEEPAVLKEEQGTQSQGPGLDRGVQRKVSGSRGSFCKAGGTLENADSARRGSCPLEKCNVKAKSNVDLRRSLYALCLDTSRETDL
Assay: Inhibitory effect on K+ channels (Appendix A): Kv1.5
Type: cell-based
Details: cells printed in μM
endpoint-name: EC50 (µM)

Some solved entries appear below for comparison.
O=c1ccc2ccc(OCCCCOc3c4ccoc4cc4oc(=O)ccc34)cc2o1
5
O=c1ccc2c(OCCCCn3cccn3)c3ccoc3cc2o1
5
O=c1ccc2c(OCCCCNc3ccncc3)c3ccoc3cc2o1
5
N#CCCCCOc1c2occc2cc2ccc(=O)oc12
10
N#CCCCCOc1c2ccoc2cc2oc(=O)ccc12
5

1: N#CCCCOc1c2ccoc2cc2oc(=O)ccc12
2: Cc1nnc(SCCCCOc2c3ccoc3cc3oc(=O)ccc23)s1
Ask: Could you point out whether the larger EC50 belongs to 1 or to 2 ? Write down the label of the entry you select.
Reply: 1

All figures here come from patent US8067460B2.
